Quick record: pIC50, human Histamine H3 receptor (hH3R) (Homo sapiens (Human)).
pIC50: −log10 of the molar value.
measurement.kind: pIC50

compound="NC(=O)c1cccc([C@@H]2C[C@H]2C(=O)N2CCN(C3CCC3)CC2)c1 (single isomer, unassigned; enantiomer 2) [Example 37]" qualifier_symbol=< observed_value=5.98
compound="O=C([C@H]1C[C@@H]1c1cccc(N2CCCC2=O)c1)N1CCN(C2CCC2)CC1 (relative stereo) [Example 34]" qualifier_symbol== observed_value=7.62
compound="O=C([C@H]1C[C@@H]1c1ccc(N2CCCC2=O)cc1)N1CCN(C2CCC2)CC1 (relative stereo) [Example 17]" qualifier_symbol== observed_value=6.71
compound="O=C([C@H]1C[C@@H]1c1ccc(-c2cn[nH]c2)cc1)N1CCN(C2CCC2)CC1 (relative stereo) [Example 20]" qualifier_symbol== observed_value=7.47

* * *

# target.desc: UniProt Q9Y5N1
# experiment: Histamine H3 SPA with the agonist radioligand [3H]-N-α-methylhistamine (hH3 binding)
# test.parameters: inhibition of [3H]-N-α-methylhistamine (1.4 nM) binding to CHO-K1 membranes expressing full-length human H3 (isoform 445)
Categorized via IC50: LOW = under 6 nM, MEDIUM = from 6 nM up to 400 nM, HIGH = 400 nM and over

compound="O=C([C@@H]1C[C@H]1c1cccc(Br)c1)N1CCN(C2CCC2)CC1 (relative stereo)" assigned_label=LOW
compound="CN1CCN(c2ccc([C@H]3C[C@@H]3C(=O)N3CCN(C4CCC4)CC3)cc2)C1=O (relative stereo)" assigned_label=HIGH
compound="NC(=O)c1ccc([C@@H]2C[C@H]2C(=O)N2CCN(C3CCC3)CC2)cc1 (relative stereo)" assigned_label=MEDIUM
compound="O=C([C@H]1C[C@@H]1c1ccc(N2CCCC2)cc1)N1CCN(C2CCC2)CC1 (relative stereo)" assigned_label=MEDIUM
compound=O=C([C@@H]1C[C@H]1c1ccc(Br)cc1)N1CCN(C2CCC2)CC1 assigned_label=HIGH
compound="O=C([C@H]1C[C@@H]1c1ccccc1)N1CCN(C2CCC2)CC1 (relative stereo) [Example 4]" assigned_label=MEDIUM
compound="O=C([C@H]1C[C@@H]1c1ccccc1)N1CCN(C2CCCCCC2)CC1 (relative stereo)" assigned_label=HIGH
compound="O=C([C@H]1C[C@@H]1c1cccc(N2CCCC2=O)c1)N1CCN(C2CCC2)CC1 (relative stereo)" assigned_label=LOW
compound="O=C([C@H]1C[C@@H]1c1ccc(N2CCCC2=O)cc1)N1CCN(C2CCC2)CC1 (relative stereo)" assigned_label=HIGH
compound="O=C([C@H]1C[C@@H]1c1ccccc1)N1CCCN(C2CCC2)CC1 (relative stereo)" assigned_label=MEDIUM
compound="O=C([C@H]1C[C@@H]1c1ccccc1)N1CCN(C2CCC2)CC1 [Example 24]" assigned_label=LOW
compound="N#Cc1cccc([C@@H]2C[C@H]2C(=O)N2CCN(C3CCC3)CC2)c1 (relative stereo)" assigned_label=LOW
compound="O=C([C@H]1C[C@@H]1c1ccc(Br)cc1)N1CCN(C2CCC2)CC1 (relative stereo) [Example 13]" assigned_label=MEDIUM
compound="O=C([C@H]1C[C@@H]1c1ccc(Br)cc1)N1CCN(C2CCC2)CC1 [Example 14]" assigned_label=MEDIUM
compound="O=C([C@H]1C[C@@H]1c1ccc(-c2cn[nH]c2)cc1)N1CCN(C2CCC2)CC1 (relative stereo)" assigned_label=MEDIUM
